Molecular target: murine E^d MHC class II allele (Mus musculus, UniProt P01904+P01915)
Sequence (P01904 26-255): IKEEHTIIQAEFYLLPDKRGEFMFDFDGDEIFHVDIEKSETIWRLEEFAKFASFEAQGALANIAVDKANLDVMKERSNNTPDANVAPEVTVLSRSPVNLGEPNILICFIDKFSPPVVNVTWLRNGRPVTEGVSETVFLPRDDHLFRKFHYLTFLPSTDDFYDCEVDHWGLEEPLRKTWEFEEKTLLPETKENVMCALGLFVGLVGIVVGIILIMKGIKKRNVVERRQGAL
Sequence (P01915 27-264 limits assumed): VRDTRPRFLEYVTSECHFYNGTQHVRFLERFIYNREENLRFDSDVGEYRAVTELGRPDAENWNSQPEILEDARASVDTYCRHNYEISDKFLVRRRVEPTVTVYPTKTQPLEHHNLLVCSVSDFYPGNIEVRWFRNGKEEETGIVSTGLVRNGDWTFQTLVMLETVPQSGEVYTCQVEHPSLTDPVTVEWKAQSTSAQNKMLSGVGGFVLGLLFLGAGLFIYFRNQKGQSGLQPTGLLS
Assay: AE101 series peptide prepulse assay, E^d allele
Assay type: cell-based
Settings: Table 35; AE101 series peptide prepulse 64 μM; antigenic peptide 0.3 μM; supernatant dilution 1:4
Positions of bridges follow the written chain, without caps; N, C: chain ends. No end group written: not given here.
observationType: T cell response relative to baseline with PBS-pretreated APC (NONE = 1.0), E^d
Answer with a number only.

substance: cyclic LRMKLPK (bridge (positions not given here); also: cyclic, ring type not given here) [AE381, “head-to-tail” cyclization from the amino-terminus to the carboxyl-terminus of AE114]
experimentalTarget: murine E^d MHC class II allele (Mus musculus, UniProt P01904+P01915)
reportedValue: 1.0
//
substance: Ac-LRMKLPK-NH2 [AE114]
experimentalTarget: murine E^d MHC class II allele (Mus musculus, UniProt P01904+P01915)
reportedValue: 6.0
//
substance: Ac-LRMK Y PK-NH2 (Ac-LRMKYPK-NH2; not fully specified; printed as Ac-LRMK Y PK-NH2) [AE235]
experimentalTarget: murine E^d MHC class II allele (Mus musculus, UniProt P01904+P01915)
reportedValue: 15.6
//
substance: Ac-LRMKLPK (lactam 4-C) [AE382]
experimentalTarget: murine E^d MHC class II allele (Mus musculus, UniProt P01904+P01915)
reportedValue: 1.7
//
substance: Ac-LR L KLPK-NH2 (Ac-LRLKLPK-NH2; not fully specified; printed as Ac-LR L KLPK-NH2) [AE206]
experimentalTarget: murine E^d MHC class II allele (Mus musculus, UniProt P01904+P01915)
reportedValue: 5.0

Now, please, on to the next substance.
Could you tell me which T cell response relative to baseline with PBS-pretreated APC (NONE = 1.0), E^d is on file for Ac-LRMK D PK-NH2 (Ac-LRMKDPK-NH2) [AE230] ? 0.8
